Cited source: ChEMBL document CHEMBL3112441

- Test system: Rattus norvegicus
- assay_procedure: Anticonvulsant activity in Wistar albino rat assessed as protection against maximal electroshock-induced seizures by measuring duration of limb extension at 10 mg/kg, po pretreated for 1 hr followed by maximal electroshock challenge (reference value: 16 +/- 1 secs)
- Assay type: functional
Each entry below carries its reported Time.
Expressed in s, but write only the number.

| structure_as_smiles | result_units | Time |
| --- | --- | --- |
| CCOC(=O)C1=C(C)N(C(C(=O)OCC)C(=O)OCC)C(C)=C(C(=O)OCC)C1c1ccccc1[N+](=O)[O-] | s | 12 |
| CCOC(=O)C1=C(C)N(C(C(=O)OCC)C(=O)OCC)C(C)=C(C(=O)OCC)C1/C=C/c1ccccc1 | s | 12 |
| CCOC(=O)C(C(=O)OCC)N1C(C)=C(C(=O)OC)C(/C=C/c2ccccc2)C(C(=O)OC)=C1C | s | 9 |
| CCOC(=O)C1=C(C)N(C(C(=O)OCC)C(=O)OCC)C(C)=C(C(=O)OCC)C1c1ccccc1 | s | 13 |
| CCOC(=O)C1=C(C)N(C(C(=O)OCC)C(=O)OCC)C(C)=C(C(=O)OCC)C1 | s | 9 |

Quick one: Time of CCOC(=O)C(C(=O)OCC)N1C(C)=C(C(=O)OC)C(c2ccccc2[N+](=O)[O-])C(C(=O)OC)=C1C ?
10

Quick one: Time of CCOC(=O)C(C(=O)OCC)N1C(C)=C(C(=O)OC)C(/C=C/c2ccc([N+](=O)[O-])cc2)C(C(=O)OC)=C1C ?
7

* * *

- Tested on: Rattus norvegicus
- assay_procedure: Anticonvulsant activity in Wistar albino rat assessed as protection against subcutaneous pentylenetetrazole-induced seizures by measuring latency period at 10 mg/kg, po pretreated for 1 hr followed by pentylenetetrazole challenge measured over 300 secs (reference value: 72 +/- 2 secs)
- Type: functional
Each entry below carries its reported Time.
Expressed in s, but write only the number.

| structure_as_smiles | Time (s) |
| --- | --- |
| CCOC(=O)C(C(=O)OCC)N1C(C)=C(C(=O)OC)C(Cc2ccccc2)C(C(=O)OC)=C1C | 285 |
| CCOC(=O)C1=C(C)N(C(C(=O)OCC)C(=O)OCC)C(C)=C(C(=O)OCC)C1c1ccccc1[N+](=O)[O-] | 230 |
| CCOC(=O)C(C(=O)OCC)N1C(C)=C(C(=O)OC)CC(C(=O)OC)=C1C | 126 |

# context switch: different compound, same Time
Quick one: Time of CCOC(=O)C1=C(C)N(C(C(=O)OCC)C(=O)OCC)C(C)=C(C(=O)OCC)C1CCc1ccccc1 ?
246

* * *

- System: Rattus norvegicus
- assay_procedure: Anticonvulsant activity in Wistar albino rat assessed as protection against maximal electroshock-induced seizures by measuring duration of limb extension at 10 mg/kg, po pretreated for 1 hr followed by maximal electroshock challenge (reference value: 16 +/- 1 secs)
- Type: functional
Each entry below carries its reported Time.
Expressed in s, but write only the number.

Example compounds with recorded Time:
| structure_as_smiles | Time [s] |
| --- | --- |
| CCOC(=O)C(C(=O)OCC)N1C(C)=C(C(=O)OC)CC(C(=O)OC)=C1C | 13 |
| CCOC(=O)C1=C(C)N(C(C(=O)OCC)C(=O)OCC)C(C)=C(C(=O)OCC)C1CCc1ccccc1 | 15 |
| CCOC(=O)C(C(=O)OCC)N1C(C)=C(C(=O)OC)C(CCc2ccccc2)C(C(=O)OC)=C1C | 13 |
| CCOC(=O)C1=C(C)N(C(C(=O)OCC)C(=O)OCC)C(C)=C(C(=O)OCC)C1Cc1ccccc1 | 14 |
| CCOC(=O)C(C(=O)OCC)N1C(C)=C(C(=O)OC)C(c2ccccc2)C(C(=O)OC)=C1C | 12 |

Quick one: Time of CCOC(=O)C(C(=O)OCC)N1C(C)=C(C(=O)OC)C(Cc2ccccc2)C(C(=O)OC)=C1C ?
14

Quick one: Time of CCOC(=O)C1=C(C)N(C(C(=O)OCC)C(=O)OCC)C(C)=C(C(=O)OCC)C1/C=C/c1ccc([N+](=O)[O-])cc1 ?
8
